Origin of measurements: ChEMBL document CHEMBL1130349

Procedure summary: Selectivity ratio of serotonin and alpha receptor
Design: reference not given here
Readout name: Ki ratio

Some entries whose results are on file:
Compound	Readout number
O=C1C2CCCCN2C(=O)N1CCCN1CCN(c2cccc(C(F)(F)F)c2)CC1 (stereo unspecified)	15.9
O=C1C2CCCN2C(=O)N1CCCCN1CCN(c2cccc(Cl)c2)CC1 (stereo unspecified)	0.8
Clc1cccc(N2CCN(CCCCN3CC4CCCN4C3)CC2)c1 (stereo unspecified)	2.3
COc1ccccc1N1CCN(CCCCN2CC3CCCCN3C2)CC1 (stereo unspecified)	8.8
FC(F)(F)c1cccc(N2CCN(CCCCN3CC4CCCN4C3)CC2)c1 (stereo unspecified)	19.5
COc1ccccc1N1CCN(CCCN2CC3CCCCN3C2)CC1 (stereo unspecified)	15.7

a = COc1ccccc1N1CCN(CCCN2C(=O)C3CCCCN3C2=O)CC1 (stereo unspecified)
b = O=C1C2CCCN2C(=O)N1CCCCN1CCN(c2cccc(C(F)(F)F)c2)CC1 (stereo unspecified)
Of a and b , whose reported Ki ratio is numerically smaller? Choose, then provide that item's label.
a
(a: 2.4, b: 27)

###

Procedure summary: Selectivity ratio of serotonin and alpha receptor
Design: reference not given here
Readout name: Ki ratio

Compound	Readout number
COc1ccccc1N1CCN(CCCCN2C(=O)C3CCCN3C2=O)CC1 (stereo not drawn)	1.5

a = O=C1C2CCCCN2C(=O)N1CCCCN1CCN(c2cccc(C(F)(F)F)c2)CC1 (stereo not drawn)
b = O=C1C2CCCCN2C(=O)N1CCCCN1CCN(c2cccc(Cl)c2)CC1 (stereo not drawn)
Looking only at measured Ki ratio, which entry is lower, a or b ? State your choice using its label.
b

###

pKi: −log10 of the molar value.
Notes on pKi obtained with 5-hydroxytryptamine receptor 1A (Rattus norvegicus).
Readout name: pKi

A = COc1ccccc1N1CCN(CCCCN2CC3CCCCN3C2)CC1 (configuration not stated)
B = FC(F)(F)c1cccc(N2CCN(CCCN3CC4CCCN4C3)CC2)c1 (configuration not stated)
Among A and B , which shows a numerically higher pKi result? Please reply using the label of the selected record.
A
(A: 8.29, B: 7.54)

###

Target system: Alpha-1A adrenergic receptor (Rattus norvegicus)
Sequence (P43140 whole entry): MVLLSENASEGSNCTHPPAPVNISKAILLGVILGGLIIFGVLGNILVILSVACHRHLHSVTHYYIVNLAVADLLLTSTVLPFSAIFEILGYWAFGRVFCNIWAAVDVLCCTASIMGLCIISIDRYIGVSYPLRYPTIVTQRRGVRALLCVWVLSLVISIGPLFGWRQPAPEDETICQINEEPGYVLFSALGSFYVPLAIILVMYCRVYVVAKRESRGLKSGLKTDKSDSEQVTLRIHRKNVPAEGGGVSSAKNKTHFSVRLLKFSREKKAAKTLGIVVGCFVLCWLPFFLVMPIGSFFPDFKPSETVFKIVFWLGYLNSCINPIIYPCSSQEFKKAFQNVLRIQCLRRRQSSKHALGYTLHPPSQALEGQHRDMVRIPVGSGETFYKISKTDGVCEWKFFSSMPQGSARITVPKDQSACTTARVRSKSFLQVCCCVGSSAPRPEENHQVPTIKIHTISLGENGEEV
Procedure summary: Binding affinities against Alpha-1 adrenergic receptor (alpha1 adrenoceptor) using [3H]prazosin as radioligand in rat cerebral cortex membrane
Format: cell membranes
Readout name: Ki (nM)

Molecule	Readout number
FC(F)(F)c1cccc(N2CCN(CCCCN3CC4CCCN4C3)CC2)c1 (configuration not stated)	240
COc1ccccc1N1CCN(CCCN2CC3CCCCN3C2)CC1 (configuration not stated)	218
Clc1cccc(N2CCN(CCCCN3CC4CCCN4C3)CC2)c1 (configuration not stated)	64.9
Clc1cccc(N2CCN(CCCCN3CC4CCCCN4C3)CC2)c1 (configuration not stated)	64.3
FC(F)(F)c1cccc(N2CCN(CCCN3CC4CCCCN4C3)CC2)c1 (configuration not stated)	278

P = COc1ccccc1N1CCN(CCCCN2CC3CCCCN3C2)CC1 (configuration not stated)
Q = O=C1C2CCCCN2C(=O)N1CCCN1CCN(c2cccc(C(F)(F)F)c2)CC1 (configuration not stated)
// select label with min value of measured Ki from [ P , Q ] Indicate your choice by writing its label.
P
(P: 45 nM, Q: 90.4 nM)

###

Procedure summary: Selectivity ratio of serotonin and alpha receptor
Set-up: reference not given here
Readout name: Ki ratio

Compound	Ki ratio
FC(F)(F)c1cccc(N2CCN(CCCN3CC4CCCCN4C3)CC2)c1 (stereo not drawn)	11.4

a = COc1ccccc1N1CCN(CCCCN2CC3CCCN3C2)CC1 (stereo not drawn)
b = COc1ccccc1N1CCN(CCCCN2C(=O)C3CCCCN3C2=O)CC1 (stereo not drawn)
Hi! Which is lower in terms of Ki ratio, the first one a or the second one b ? // caller expects the label of the chosen entry
b
(b: 1, a: 4.1)

###

A set of compounds tested on 5-hydroxytryptamine receptor 1A (Rattus norvegicus, UniProt P19327), with measured Ki:
Give the value, in units of nM, as a plain number.

Answered examples (3):
Compound	Measure unit	Readout number
FC(F)(F)c1cccc(N2CCN(CCCCN3CC4CCCN4C3)CC2)c1 (stereo not given)	nM	12.3
FC(F)(F)c1cccc(N2CCN(CCCN3CC4CCCCN4C3)CC2)c1 (stereo not given)	nM	24.3
Clc1cccc(N2CCN(CCCCN3CC4CCCN4C3)CC2)c1 (stereo not given)	nM	28.1

Observed Ki on 5-hydroxytryptamine receptor 1A (Rattus norvegicus, UniProt P19327) for COc1ccccc1N1CCN(CCCN2CC3CCCN3C2)CC1 (stereo not given) , please.
Sequence (P19327 whole entry): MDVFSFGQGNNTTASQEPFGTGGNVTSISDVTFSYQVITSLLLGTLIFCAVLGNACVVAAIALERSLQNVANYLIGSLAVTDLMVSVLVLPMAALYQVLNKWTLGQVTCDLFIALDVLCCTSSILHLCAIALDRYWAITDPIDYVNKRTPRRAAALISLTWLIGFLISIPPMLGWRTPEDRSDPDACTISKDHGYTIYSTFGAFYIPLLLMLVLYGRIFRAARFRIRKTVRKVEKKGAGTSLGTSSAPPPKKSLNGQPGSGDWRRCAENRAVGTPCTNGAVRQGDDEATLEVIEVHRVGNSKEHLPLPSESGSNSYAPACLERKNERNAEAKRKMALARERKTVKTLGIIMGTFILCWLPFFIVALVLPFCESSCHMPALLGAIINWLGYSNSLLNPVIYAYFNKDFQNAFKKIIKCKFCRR
12.2

Return Ki measured with 5-hydroxytryptamine receptor 1A (Rattus norvegicus, UniProt P19327) given this compound: Clc1cccc(N2CCN(CCCCN3CC4CCCCN4C3)CC2)c1 (stereo not given)
24.3
